Kindly supply the reported Peptide/Antibiotic Concentration where at least 80% of biofilm growth was inhibited values for the records listed here.
- Test system: MRSA USA300
- measurementDescription: Biofilm inhibition (at least 80%), MRSA
- Type: cell-based, methicillin resistant Staphylococcus aureus
- measurementParameters: n = 4, 10% TSB + 0.1% glucose, 18-24 hours, crystal violet
Where a SMILES comes first, the peptide text is derived from it. [ ]: non-standard residue; d: D form.
Output spec: scalar in µg/mL, unitless text.

What Peptide/Antibiotic Concentration where at least 80% of biofilm growth was inhibited value was documented for this compound, CC[C@@H](C)[C@@H](NC(=O)[C@@H](C)NC(=O)[C@@H](CCCNC(=N)N)NC(=O)[C@@H](Cc1c[nH]c2ccccc12)NC(=O)[C@@H](CCC(N)=O)NC(=O)[C@H](N)C(C)C)C(=O)N[C@H](CCCNC(=N)N)C(=O)N[C@@H](C(=O)N[C@H](CCCNC(=N)N)C(=O)N[C@@H](C(=O)N[C@@H](C(=O)N[C@H](CCCNC(=N)N)C(N)=O)[C@H](C)CC)C(C)C)C(C)C [DJK5, vqwrairvrvir-NH2] (H-[dV][dQ][dW][dR][dA][dI][dR][dV][dR][dV][dI][dR]-NH2) ? 1

What Peptide/Antibiotic Concentration where at least 80% of biofilm growth was inhibited value was documented for this compound, CC[C@@H](C)[C@@H](NC(=O)[C@@H](C)NC(=O)[C@@H](CCCNC(=N)N)NC(=O)[C@@H](Cc1c[nH]c2ccccc12)NC(=O)[C@@H](CCC(N)=O)NC(=O)[C@H](NC(=O)[C@@H](CCCNC(=N)N)NC(=O)[C@H](NC(=O)[C@H](NC(=O)[C@@H](CCCNC(=N)N)NC(=O)[C@H](NC(=O)[C@H](N)CCCNC(=N)N)C(C)C)C(C)C)[C@H](C)CC)C(C)C)C(N)=O [AB103-D, rvrvirvqwrai-NH2] (H-[dR][dV][dR][dV][dI][dR][dV][dQ][dW][dR][dA][dI]-NH2) ? 0.5

What Peptide/Antibiotic Concentration where at least 80% of biofilm growth was inhibited value was documented for this compound, `CN[C@H](CC(C)C)C(=O)N[C@H]1C(=O)N[C@@H](CC(N)=O)C(=O)N[C@H]2C(=O)N[C@H]3C(=O)N[C@H](C(=O)N[C@H](C(=O)O)c4cc(O)cc(O)c4-c4cc3ccc4O)[C@H](O)c3ccc(c(Cl)c3)Oc3cc2cc(c3O[C@@H]2O[C@H](CO)[C@@H](O)[C@H](O)[C@H]2O[C@H]2C[C@](C)(N)[C@H](O)[C@H](C)O2)Oc2ccc(cc2Cl)[C@H]1O` ? 0.25

What Peptide/Antibiotic Concentration where at least 80% of biofilm growth was inhibited value was documented for this compound, CC[C@@H](C)[C@@H](NC(=O)[C@@H](C)NC(=O)[C@@H](CCCNC(=N)N)NC(=O)[C@@H](Cc1c[nH]c2ccccc12)NC(=O)[C@@H](CCC(N)=O)NC(=O)[C@H](N)C(C)C)C(=O)N[C@H](CCCNC(=N)N)C(=O)N[C@@H](C(=O)N[C@@H](C(=O)N[C@@H](C(=O)N[C@@H](C(=O)N[C@H](CCCNC(=N)N)C(N)=O)[C@H](C)CC)C(C)C)[C@H](C)CC)C(C)C [AB107-D, vqwrairvivir-NH2] (H-[dV][dQ][dW][dR][dA][dI][dR][dV][dI][dV][dI][dR]-NH2) ? 1

----------
- System: P. aeruginosa PAO1 planktonic cells
- measurementDescription: MIC of antibiotics against planktonic cells, PAO1
- Format: cell-based, Pseudomonas aeruginosa
- measurementParameters: Pseudomonas aeruginosa, PAO1, read-out: MIC against planktonic cells in BM2 medium
Kindly supply the reported MIC values for the records listed here.
Reply with a number, then the unit it belongs to.

What MIC value was documented for this compound, CN[C@H](CC(C)C)C(=O)N[C@H]1C(=O)N[C@@H](CC(N)=O)C(=O)N[C@H]2C(=O)N[C@H]3C(=O)N[C@H](C(=O)N[C@H](C(=O)O)c4cc(O)cc(O)c4-c4cc3ccc4O)[C@H](O)c3ccc(c(Cl)c3)Oc3cc2cc(c3O[C@@H]2O[C@H](CO)[C@@H](O)[C@H](O)[C@H]2O[C@H]2C[C@](C)(N)[C@H](O)[C@H](C)O2)Oc2ccc(cc2Cl)[C@H]1O [Vancomycin] ? 256 µg/mL

What MIC value was documented for this compound, CCn1cc(C(=O)O)c(=O)c2cc(F)c(N3CCNCC3)cc21 [Norfloxacin] ? 0.25 µg/mL

What MIC value was documented for this compound, C[C@H]1[C@H](NC(=O)/C(=N\OC(C)(C)C(=O)O)c2csc(N)n2)C(=O)N1S(=O)(=O)O [Aztreonam] ? 8 µg/mL

----------
- Test system: P. aeruginosa PAO1 biofilms
- measurementDescription: Checkerboard biofilm synergy of AB103-D with antimicrobials, PAO1
- Type: cell-based, Pseudomonas aeruginosa
- measurementParameters: in combination with AB103-D; PAO1
reportedMetric: Fold Decrease in concentration of Antibiotic

Field: Fold Decrease in concentration of Antibiotic (P. aeruginosa PAO1 biofilms). Entry: CCC[C@@H]1C[C@@H](C(=O)N[C@@H]([C@H]2O[C@H](SC)[C@H](O)[C@@H](O)[C@H]2O)[C@H](C)Cl)N(C)C1 [Clindamycin] 2-fold

Field: Fold Decrease in concentration of Antibiotic (P. aeruginosa PAO1 biofilms). Entry: CCN1CCN(C(=O)N[C@@H](C(=O)N[C@@H]2C(=O)N3[C@@H]2SC(C)(C)[C@@H]3C(=O)O)c2ccccc2)C(=O)C1=O [Piperacillin] 2-fold

Field: Fold Decrease in concentration of Antibiotic (P. aeruginosa PAO1 biofilms). Entry: CC[C@H]1OC(=O)[C@H](C)[C@@H](O[C@H]2C[C@@](C)(OC)[C@@H](O)[C@H](C)O2)[C@H](C)[C@@H](O[C@@H]2O[C@H](C)C[C@H](N(C)C)[C@H]2O)[C@](C)(O)C[C@@H](C)CN(C)[C@H](C)[C@@H](O)[C@]1(C)O [Azithromycin] 4-fold

Field: Fold Decrease in concentration of Antibiotic (P. aeruginosa PAO1 biofilms). Entry: NC[C@H]1O[C@H](O[C@H]2[C@H](O)[C@@H](O[C@H]3O[C@H](CO)[C@@H](O)[C@H](N)[C@H]3O)[C@H](N)C[C@@H]2N)[C@H](N)C[C@@H]1O [Tobramycin] 2-fold

Field: Fold Decrease in concentration of Antibiotic (P. aeruginosa PAO1 biofilms). Entry: COc1cc(Cc2cnc(N)nc2N)cc(OC)c1OC [Trimethoprim] 2-fold

Field: Fold Decrease in concentration of Antibiotic (P. aeruginosa PAO1 biofilms). Entry: CC(C)(O/N=C(\C(=O)N[C@@H]1C(=O)N2C(C(=O)[O-])=C(C[n+]3ccccc3)CS[C@H]12)c1csc(N)n1)C(=O)O [Ceftazidime] 4-fold

----------
- measurementDescription: Subdermal murine toxicity model
- measurementParameters: 1 hour after subcutaneous administration; comparator DJK-5
Where a SMILES comes first, the peptide text is derived from it. [ ]: non-standard residue; d: D form.
reportedMetric: Clinical score

What Clinical score value was documented for this compound, CC[C@@H](C)[C@@H](NC(=O)[C@@H](C)NC(=O)[C@@H](CCCNC(=N)N)NC(=O)[C@@H](Cc1c[nH]c2ccccc12)NC(=O)[C@@H](CCC(N)=O)NC(=O)[C@H](NC(=O)[C@@H](CCCNC(=N)N)NC(=O)[C@H](NC(=O)[C@H](NC(=O)[C@@H](CCCNC(=N)N)NC(=O)[C@H](NC(=O)[C@H](N)CCCNC(=N)N)C(C)C)C(C)C)[C@H](C)CC)C(C)C)C(N)=O [AB103-D, rvrvirvqwrai-NH2] (H-[dR][dV][dR][dV][dI][dR][dV][dQ][dW][dR][dA][dI]-NH2) ? < 2

What Clinical score value was documented for this compound, CC[C@@H](C)[C@@H](NC(=O)[C@@H](C)NC(=O)[C@@H](CCCNC(=N)N)NC(=O)[C@@H](Cc1c[nH]c2ccccc12)NC(=O)[C@@H](CCC(N)=O)NC(=O)[C@H](NC(=O)[C@@H](CCCNC(=N)N)NC(=O)[C@@H](Cc1c[nH]c2ccccc12)NC(=O)[C@H](NC(=O)[C@@H](CCCNC(=N)N)NC(=O)[C@H](NC(=O)[C@H](N)CCCNC(=N)N)C(C)C)C(C)C)C(C)C)C(N)=O [AB111-D, rvrvwrvqwrai] (H-[dR][dV][dR][dV][dW][dR][dV][dQ][dW][dR][dA][dI]-NH2) ? < 2

What Clinical score value was documented for this compound, CC[C@@H](C)[C@@H](NC(=O)[C@@H](C)NC(=O)[C@@H](CCCNC(=N)N)NC(=O)[C@@H](Cc1c[nH]c2ccccc12)NC(=O)[C@@H](CCC(N)=O)NC(=O)[C@H](NC(=O)[C@@H](CCCNC(=N)N)NC(=O)[C@H](NC(=O)[C@H](NC(=O)[C@@H](CCCNC(=N)N)NC(=O)[C@H](NC(=O)[C@H](N)CCCCN)C(C)C)C(C)C)[C@H](C)CC)C(C)C)C(N)=O [AB117-D, kvrvirvqwrai] (H-[dK][dV][dR][dV][dI][dR][dV][dQ][dW][dR][dA][dI]-NH2) ? < 2

What Clinical score value was documented for this compound, CC[C@@H](C)[C@@H](NC(=O)[C@@H](C)NC(=O)[C@@H](CCCNC(=N)N)NC(=O)[C@@H](Cc1c[nH]c2ccccc12)NC(=O)[C@@H](CCC(N)=O)NC(=O)[C@H](N)C(C)C)C(=O)N[C@H](CCCNC(=N)N)C(=O)N[C@@H](C(=O)N[C@H](CCCNC(=N)N)C(=O)N[C@@H](C(=O)N[C@@H](C(=O)N[C@H](CCCNC(=N)N)C(N)=O)[C@H](C)CC)C(C)C)C(C)C [DJK5, vqwrairvrvir-NH2] (H-[dV][dQ][dW][dR][dA][dI][dR][dV][dR][dV][dI][dR]-NH2) ? 2

What Clinical score value was documented for this compound, CC[C@@H](C)[C@@H](NC(=O)[C@@H](C)NC(=O)[C@@H](CCCNC(=N)N)NC(=O)[C@@H](Cc1c[nH]c2ccccc12)NC(=O)[C@@H](CCCCN)NC(=O)[C@H](NC(=O)[C@@H](CCCNC(=N)N)NC(=O)[C@H](NC(=O)[C@H](NC(=O)[C@@H](CCCNC(=N)N)NC(=O)[C@H](NC(=O)[C@H](N)CCCNC(=N)N)C(C)C)C(C)C)[C@H](C)CC)C(C)C)C(N)=O [AB114-D, rvrvirvkwrai] (H-[dR][dV][dR][dV][dI][dR][dV][dK][dW][dR][dA][dI]-NH2) ? < 2
